All figures here come from paper PMC6040651.

test: Vorinostat serum pharmacokinetics, cycle 1; settings: human, serum, po, 300 mg/m2
parameter: AUC(0-inf) (ng·h/mL)
The reply should be a number in ng·h/mL, with the unit left off.

// recorded AUC(0-inf) for O=C(CCCCCCC(=O)Nc1ccccc1)NO [vorinostat, suberoylanilide hydroxamic acid] : 2640

====

test: Vorinostat serum pharmacokinetics, cycle 1; conditions: human, serum, oral
parameter: clearance

// recorded clearance for O=C(CCCCCCC(=O)Nc1ccccc1)NO [vorinostat, suberoylanilide hydroxamic acid] : 967 to 7250 mL/min

====

test: Vorinostat serum pharmacokinetics, cycle 1; details: human, serum, po, 300 mg/m2
parameter: Cmax
Dear colleague, please send the value followed by its unit.

// recorded Cmax for O=C(CCCCCCC(=O)Nc1ccccc1)NO [vorinostat, suberoylanilide hydroxamic acid] : 552 ng/mL
